readout-kind: melting point

melting point lookup needed for CCCCOc1ccc(-n2c(NCc3ccc(Cl)cc3)nc3cc(Cl)c(Cl)cc32)cc1 [Example 101] , thanks.
162 to 163 °C

melting point lookup needed for CCCOc1ccc(-n2c(NCc3ccc(Br)cc3)nc3cc(Cl)c(Cl)cc32)cc1 [Example 97] , thanks.
106 to 107 °C

melting point lookup needed for CCOc1ccc(-n2c(SCc3ccc(Br)cc3)nc3cccc(Cl)c32)cc1 [Example 137] , thanks.
143 to 144 °C

---

Please go through the items and note down their melting point.

melting point lookup needed for FC(F)C(F)(F)Oc1ccc(-n2c(SCc3ccc(Cl)cc3)nc3ccc(Cl)cc32)cc1 , thanks.
139 to 140 °C

melting point lookup needed for CCOC(=O)N1CCC(n2c(SCc3ccc(Br)cc3)nc3ccc(Cl)cc32)CC1 , thanks.
123 to 124 °C

melting point lookup needed for CC(=O)OCCOc1ccc(-n2c(SCc3ccc(Cl)cc3)nc3ccc(Cl)cc32)cc1 , thanks.
126 to 127 °C

melting point lookup needed for CCOc1ccc(-n2c(NCc3ccc(Br)cc3)nc3cc(Cl)c(Cl)cc32)cc1 , thanks.
92 to 93 °C

melting point lookup needed for CN(C)C(=O)c1ccc(-n2c(SCc3ccc(Cl)cc3)nc3ccc(Cl)cc32)cc1 , thanks.
139 to 140 °C

melting point lookup needed for CC(C)(C)OC(=O)Nc1ccc(-n2c(SCc3ccc(Cl)cc3)nc3ccc(Cl)cc32)cc1 , thanks.
163 to 164 °C

melting point lookup needed for CCOc1ccc(-n2c(SCc3ccc(C(C)(C)C)cc3)nc3ccc(Cl)cc32)cc1 , thanks.
142 to 143 °C

melting point lookup needed for CCOC(=O)N1CCC(n2c(SCc3ccc(Cl)cc3)nc3ccc(Cl)cc32)CC1 , thanks.
118 to 119 °C

melting point lookup needed for Cl.FC(F)(F)COc1ccc(-n2c(SCc3ccc(Cl)cc3)nc3ccc(Cl)cc32)cc1 , thanks.
106 to 107 °C

melting point lookup needed for CCCOc1ccc(-n2c(NCc3ccc(C(C)(C)C)cc3)nc3cc(Cl)ccc32)cc1 , thanks.
190 to 191 °C

---

Please go through the items and note down their melting point.

melting point lookup needed for Clc1ccc(CSc2nc3ccc(Cl)cc3n2-c2ccc(C3OCCO3)cc2)cc1 [Example 132] , thanks.
129 to 130 °C

melting point lookup needed for Oc1ccc(-n2c(SCc3ccc(Cl)cc3)nc3ccc(Cl)cc32)cc1 [Example 9] , thanks.
210 to 212 °C

melting point lookup needed for CCOc1ccc(-n2c(SCc3ccc(C(C)(C)C)cc3)nc3cccc(Cl)c32)cc1 [Example 139] , thanks.
175 to 176 °C

melting point lookup needed for CCOc1ccc(-n2c(NCc3ccc(C(C)(C)C)cc3)nc3cc(Cl)ccc32)cc1 [Example 81] , thanks.
211 to 212 °C

melting point lookup needed for CCOc1ccc(-n2c(NCc3ccc(Br)cc3)nc3ccc(Cl)cc32)cc1.Cl [Example 69] , thanks.
135 to 138 °C

melting point lookup needed for COCOc1ccc(-n2c(SCc3cccnc3)nc3ccc(Cl)cc32)cc1 [Example 56] , thanks.
101 to 102 °C

melting point lookup needed for CCCCOc1ccc(-n2c(SCc3ccc(Cl)cc3)nc3ccc(Cl)cc32)cc1 [Example 22] , thanks.
96 to 97 °C
